From: PubChem BioAssay AID1963967

# Tested on: 855422-203-R-J1-PDC spheroids with HUVEC/MSC, viability
# Experiment Notes: Anticancer human tumor 855422-203-R-J1-PDC patient-derived bladder carcinoma cell line growth inhibition [PI3K]
# Experimental Parameters: second compound 0.1 µM; first compound 0.00949 µM; stronger effect = lower value
# Source text: Combinatorial screen of targeted agents with the PI3K inhibitors inavolisib, alpelisib, duvelisib, and copanlisib in multi-cell type tumor spheroids A high-throughput screen of multi-cell type tumor spheroids was designed to identify active combinations of targeted small molecules and PI3K pathway inhibitors. […] Compounds. […] If the clinical Cmax for an agent had not been determined, the highest concentration tested was 10 microM. […]
Value Kind: viability, T/C (%)
Quick note: give the figure in %, leave out the unit.

Sample answers from the record:
Molecule	Value Kind	Experimental Result
Cn1cnc2c(F)c(Nc3ccc(Br)cc3Cl)c(C(=O)NOCCO)cc21 + CC(Nc1ncnc2nc[nH]c12)c1cc2cccc(Cl)c2c(=O)n1-c1ccccc1	viability, T/C	109
Cn1cnc2c(F)c(Nc3ccc(Br)cc3Cl)c(C(=O)NOCCO)cc21 + Cc1nc(NC(=O)N2CCCC2C(N)=O)sc1-c1ccnc(C(C)(C)C(F)(F)F)c1	viability, T/C	96.6
Cn1cnc2c(F)c(Nc3ccc(Br)cc3Cl)c(C(=O)NOCCO)cc21 + COc1c(OCCCN2CCOCC2)ccc2c3n(c(=NC(=O)c4cnc(N)nc4)nc12)CCN3	viability, T/C	30.8

Kindly review the next molecule as well.
What viability, T/C value was documented for this molecule, Cn1cnc2c(F)c(Nc3ccc(Br)cc3Cl)c(C(=O)NOCCO)cc21 + CC(Nc1ccc2c(c1)OCCn1cc(N3C(=O)OCC3C(F)F)nc1-2)C(N)=O ?
64.9

---

# Tested on: 855422-203-R-J1-PDC spheroids with HUVEC/MSC, viability
# Experiment Notes: Anticancer human tumor 855422-203-R-J1-PDC cell line growth inhibition [PI3K];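 further: agents incubated with spheroids for one week before read-out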;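 on viability, T/C: 100% = DMSO vehicle-treated control wells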
# Experimental Parameters: second compound 3.16 µM; first compound 1 µM; stronger effect = lower value
Items are presented alongside their recorded viability, T/C.

Sample answers from the record:
Compound	Measured On	viability, T/C
CNC(=O)c1ccc(N2C(=S)N(c3ccc(C#N)c(C(F)(F)F)c3)C(=O)C2(C)C)cc1F + CC(Nc1ncnc2nc[nH]c12)c1cc2cccc(Cl)c2c(=O)n1-c1ccccc1	855422-203-R-J1-PDC spheroids with HUVEC/MSC, viability	84.3%
Cn1ncc(Cl)c1-c1cc(C(=O)NC(CN)Cc2cccc(F)c2)sc1Cl (stereo not drawn) + CC(Nc1ncnc2nc[nH]c12)c1cc2cccc(Cl)c2c(=O)n1-c1ccccc1	855422-203-R-J1-PDC spheroids with HUVEC/MSC, viability	39.5%

Kindly review the next compound as well.
What viability, T/C value was documented for this compound, C=CC(=O)N1CCN(c2nc(=O)n(-c3c(C)ccnc3C(C)C)c3nc(-c4c(O)cccc4F)c(F)cc23)C(C)C1 (stereo not drawn) + CC(Nc1ncnc2nc[nH]c12)c1cc2cccc(Cl)c2c(=O)n1-c1ccccc1 ?
115%

---

# Tested on: 855422-203-R-J1-PDC spheroids with HUVEC/MSC, viability
# Experiment Notes: Anticancer human tumor 855422-203-R-J1-PDC cell line growth inhibition [PI3K];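 further: agents incubated with spheroids for one week before read-out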
# Experimental Parameters: curve of first compound; second compound 0.1 µM
pIC50: −log10 of the molar value.
Items are presented alongside their recorded pIC50.

What pIC50 value was documented for this molecule, C#Cc1c(F)ccc2cc(O)cc(-c3ncc4c(N5CC6CCC(C5)N6)nc(OCC56CCCN5CC(F)C6)nc4c3F)c12 (stereo not drawn) + COc1c(OCCCN2CCOCC2)ccc2c3n(c(=NC(=O)c4cnc(N)nc4)nc12)CCN3 ?
> 7.50

What pIC50 value was documented for this molecule, CCCS(=O)(=O)Nc1ccc(F)c(C(=O)c2c[nH]c3ncc(-c4ccc(Cl)cc4)cc23)c1F + CC(Nc1ccc2c(c1)OCCn1cc(N3C(=O)OCC3C(F)F)nc1-2)C(N)=O ?
5.45

What pIC50 value was documented for this molecule, C[C@@H](NC(=O)c1ncnc(N)c1Cl)c1ncc(C(=O)Nc2cc(C(F)(F)F)c(Cl)cn2)s1 + CC(Nc1ncnc2nc[nH]c12)c1cc2cccc(Cl)c2c(=O)n1-c1ccccc1 ?
< 5.00
